- target-of-assay: bafilomycin-sensitive ATPase
- assay: Inhibition of bafilomycin-sensitive ATPase in chicken osteoclasts (ATPase assay, Pi release)
- Type: biochemical
- condition-parameters: chicken osteoclast membranes
Where a name gives a salt, the structure may show the parent alone.
Listing of recorded IC50 by entry.
The figure you give is taken to be in µM; do not add the unit.

[[record]]
compound = "CO/C(=C\\C=C\\c1cc2cc(Cl)c(Cl)cc2[nH]1)C(=O)Nc1ncccn1 [Example 65]"
quantitative_readout = 17

[[record]]
compound = "CO/C(=C\\C=C\\c1cc2cc(Cl)c(Cl)cc2[nH]1)C(=O)NCCCN(CC(=O)O)CC(=O)O [Example 45, hydrochloride]"
quantitative_readout = 14

[[record]]
compound = "CCN(CCCNC(=O)/C(=C/C=C/c1cc2cc(Cl)c(Cl)cc2[nH]1)OC)Cc1ccccc1 [Example 62]"
quantitative_readout = 1.4

[[record]]
compound = "CO/C(=C\\C=C\\c1cc2cc(Cl)c(Cl)cc2[nH]1)C(=O)Nc1cccnc1 [Example 44]"
quantitative_readout = 0.62

[[record]]
compound = "CCN(CC)CCCNC(=O)/C(=C/C=C/c1cc2cc(Cl)c(Cl)cc2[nH]1)OC [Example 34]"
quantitative_readout = 0.17

[[record]]
compound = "CO/C(=C\\C=C\\c1cc2cc(Cl)c(Cl)cc2[nH]1)C(=O)NCCCN1CCOCC1 [Example 51]"
quantitative_readout = 1.1

[[record]]
compound = "CCN(CC)CCCNC(=O)/C(=C/C=C/c1cc2cc(Cl)ccc2[nH]1)OC [Example 26]"
quantitative_readout = 3

[[record]]
compound = "CO/C(=C\\C=C\\c1cc2cc(Cl)c(Cl)cc2[nH]1)C(=O)NN1CCN(C)CC1 [Example 60]"
quantitative_readout = 0.85


[in] State, in one line, measured IC50 of CCOC(=O)/C(=C/C=C/c1cc2cc(Cl)ccc2[nH]1)OCC [Example 30]
[out] 30

[in] Report IC50 for CO/C(=C\C=C\c1cc2cc(Cl)c(Cl)cc2[nH]1)C(=O)Nc1ncnc2[nH]ncc12 [Example 71]
[out] 0.53

[in] Specify measured IC50 for COC(=O)/C(=C/C=C/c1cc2cc(Cl)c(Cl)cc2[nH]1)OC [Example 6] .
[out] 1.1

[in] Identify the reported IC50 for the following entry. CO/C(=C\C=C\c1cc2cc(Cl)c(Cl)cc2[nH]1)C(=O)NCCCN1CCCCC1C (stereo not shown) [Example 59]
[out] 0.13

[in] Give the value of IC50 reported for the following: CO/C(=C\C=C\c1cc2cc(Cl)ccc2[nH]1)C(=O)NCc1ccc(N)cc1 [Example 37]
[out] 30

[in] Could you please provide reported IC50 for CO/C(=C\C=C\c1cc2cc(Cl)c(Cl)cc2[nH]1)C(=O)NCCCn1ccnc1 [Example 49] ? Thanks!
[out] 4

[in] Report IC50, nothing else, for this compound: CO/C(=C\C=C\c1cc2cc(Cl)c(Cl)cc2[nH]1)C(=O)N[C@@H]1CN2CCC1CC2 [Example 50]
[out] 0.62

[in] State its IC50 for this compound: COC(=O)/C(=C/C=C/c1cc2cc(Cl)ccc2[nH]1)OC [Example 4]
[out] 7

[in] Dear colleague, please send me the reported IC50 for CO/C(=C\C=C\c1cc2cc(Cl)c(Cl)cc2[nH]1)C(=O)NC1CC(C)(C)NC(C)(C)C1 [Example 56] when you can.
[out] 0.07

[in] Consider the compound CO/C(=C\C=C\c1cc2cc(Cl)ccc2[nH]1)C(=O)NCc1cccnc1 [Example 15] and give its recorded IC50.
[out] 22

[in] Identify IC50 associated with the compound CO/C(=C\C=C\c1cc2cc(Cl)c(Cl)cc2[nH]1)C(=O)NCCCN1CCN(C)CC1 [Example 67]
[out] 1.3

====

- target-of-assay: bafilomycin-sensitive ATPase
- assay: Inhibition of bafilomycin-sensitive ATPase in chicken osteoclasts (ATPase assay, Pi release)
- Assay type: biochemical
- condition-parameters: chicken osteoclast membranes
Measured log10 IC50 by item
Form field - Quantity: IC50; Unit: µM; Scale: log10

[[record]]
molecule = "CO/C(=C\\C=C\\c1cc2cc(Cl)ccc2[nH]1)C(=O)Nc1cccnc1 [Example 33]"
target_of_assay = "bafilomycin-sensitive ATPase"
quantitative_readout = 0.60

[[record]]
molecule = "CO/C(=C\\C=C\\c1cc2cc(Cl)c(Cl)cc2[nH]1)C(=O)NC1CC2CCC(C1)N2C (centres unmarked) [Example 66]"
target_of_assay = "bafilomycin-sensitive ATPase"
quantitative_readout = -1.00

[[record]]
molecule = "CO/C(=C\\C=C\\c1cc2cc(Cl)c(Cl)cc2[nH]1)C(=O)NC1CCN(C)CC1 [Example 70]"
target_of_assay = "bafilomycin-sensitive ATPase"
quantitative_readout = -0.92

[[record]]
molecule = "CO/C(=C\\C=C\\c1cc2cc(Cl)c(Cl)cc2[nH]1)C(=O)NCCC1CCCN1C (centres unmarked) [Example 54]"
target_of_assay = "bafilomycin-sensitive ATPase"
quantitative_readout = -0.47

[[record]]
molecule = "CCN(CC)CCNC(=O)/C(=C/C=C/c1cc2cc(Cl)c(Cl)cc2[nH]1)OC [Example 46]"
target_of_assay = "bafilomycin-sensitive ATPase"
quantitative_readout = -0.23

[[record]]
molecule = "CO/C(=C\\C=C\\c1cc2cc(Cl)ccc2[nH]1)C(=O)N(Cc1ccccc1)CC(O)CO (centres unmarked) [Example 20]"
target_of_assay = "bafilomycin-sensitive ATPase"
quantitative_readout = 1.18

[[record]]
molecule = "CO/C(=C\\C=C\\c1cc2cc(Cl)c(Cl)cc2[nH]1)C(=O)Nc1ccc(OC)nc1 [Example 57]"
target_of_assay = "bafilomycin-sensitive ATPase"
quantitative_readout = 0.20


Next item in the queue.
[in] Specify log10 IC50 for CO/C(=C\C=C\c1cc2cc(Cl)c(Cl)cc2[nH]1)C(=O)NCCN1CCCCC1 [Example 53] , system bafilomycin-sensitive ATPase.
[out] 0.08
